This collection of values is drawn from patent US20250059156A1.

target: PDE4C1 (Homo sapiens (Human)); assay: PDE4 percent inhibition assay; type: biochemical; conditions: read-out: PDE4 Isoform % Inhibition @ 10 μM PDE4C1
Sequence (Q08493 whole entry, canonical isoform): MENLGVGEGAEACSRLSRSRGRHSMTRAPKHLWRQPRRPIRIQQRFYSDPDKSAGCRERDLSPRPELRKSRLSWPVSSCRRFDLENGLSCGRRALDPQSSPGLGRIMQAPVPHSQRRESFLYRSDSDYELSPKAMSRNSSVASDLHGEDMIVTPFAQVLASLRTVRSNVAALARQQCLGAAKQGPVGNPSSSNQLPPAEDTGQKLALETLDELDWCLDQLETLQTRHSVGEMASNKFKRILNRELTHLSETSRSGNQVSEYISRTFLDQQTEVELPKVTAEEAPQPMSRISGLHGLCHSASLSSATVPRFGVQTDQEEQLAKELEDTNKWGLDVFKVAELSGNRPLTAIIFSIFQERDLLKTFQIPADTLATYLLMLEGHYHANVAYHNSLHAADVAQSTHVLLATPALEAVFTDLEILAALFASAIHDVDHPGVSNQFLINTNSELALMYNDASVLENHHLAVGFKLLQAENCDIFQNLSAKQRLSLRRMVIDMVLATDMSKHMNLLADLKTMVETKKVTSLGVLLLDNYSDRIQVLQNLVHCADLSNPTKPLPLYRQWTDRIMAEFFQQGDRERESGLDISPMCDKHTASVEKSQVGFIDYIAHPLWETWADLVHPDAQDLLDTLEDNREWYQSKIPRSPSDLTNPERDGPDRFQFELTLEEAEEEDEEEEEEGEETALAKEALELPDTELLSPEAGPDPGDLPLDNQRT
Reported inhibition at 10 µM by item:

- compound: "COc1ccc([C@@]23CC[C@H](N4CCCC4)C[C@@H]2N(C)CC3)cc1OC"
  result: "< 30%"
- compound: "COc1ccc([C@@]23CC[C@H](N4CCCCC4)C[C@@H]2N(C)CC3)cc1OC"
  result: "< 30%"
- compound: "COc1ccc([C@@]23CC[C@H](N4CCOCC4)C[C@@H]2N(C)CC3)cc1OC"
  result: "< 30%"
- compound: "COc1ccc([C@@]23CC[C@@H](N4CCC4)C[C@@H]2N(C)CC3)cc1OC"
  result: "< 30%"
- compound: "COc1ccc([C@@]23CC[C@@H](N4CCCC4=O)C[C@@H]2N(C)CC3)cc1OC"
  result: "< 30%"
- compound: "COc1ccc([C@@]23CC[C@H](N4CCC4)C[C@@H]2N(C)CC3)cc1OC"
  result: "< 30%"

Prompt: Request the reported inhibition at 10 µM associated with COc1ccc([C@@]23CC[C@@H](n4ccc(C(F)(F)F)n4)C[C@@H]2N(C)CC3)cc1OC
Response: < 30%

Prompt: Request the reported inhibition at 10 µM associated with COc1ccc([C@@]23CC[C@H](n4ccc(C(F)(F)F)n4)C[C@@H]2N(C)CC3)cc1OC
Response: < 30%

Prompt: Request the reported inhibition at 10 µM associated with COc1ccc([C@@]23CCN(C)[C@H]2CC(=O)[C@@H]2O[C@@H]23)cc1OC (racemic)
Response: ≥ 70%

Prompt: Request the reported inhibition at 10 µM associated with COc1ccc([C@]23CCN(C)[C@H]2CC2(CCO2)CC3)cc1OC (some centres unmarked)
Response: 30 to 50%

Prompt: Request the reported inhibition at 10 µM associated with COc1ccc([C@@]23CC[C@@H](N4CCOCC4)C[C@@H]2N(C)CC3)cc1OC
Response: < 30%

Prompt: Request the reported inhibition at 10 µM associated with COc1ccc([C@@]23CC[C@@H](N4CCCC4)C[C@@H]2N(C)CC3)cc1OC
Response: < 30%

Prompt: Request the reported inhibition at 10 µM associated with COc1ccc([C@@]23CC[C@H](N4CCCC4=O)C[C@@H]2N(C)CC3)cc1OC
Response: < 30%

Prompt: Request the reported inhibition at 10 µM associated with COc1ccc([C@]23CCN(C)[C@H]2CC(=O)C=C3c2ccccc2)cc1OC (racemic)
Response: 30 to 50%

Prompt: Request the reported inhibition at 10 µM associated with COc1ccc([C@@]23CC[C@@H](n4cccn4)C[C@@H]2N(C)CC3)cc1OC
Response: < 30%

Prompt: Request the reported inhibition at 10 µM associated with COc1ccc([C@]23CCN(C)[C@H]2CC2(CCCO2)CC3)cc1OC (some centres unmarked)
Response: < 30%

Prompt: Request the reported inhibition at 10 µM associated with COc1ccc([C@@]23CC[C@H](n4cccn4)C[C@@H]2N(C)CC3)cc1OC
Response: < 30%
